test: Cytotoxicity against LPS-activated mouse RAW264.7 cells after 24 hrs by MTT method; format: cell-based; details: LPS-activated RAW264.7 cells
Quick reference for CC50 at 24 h among some compounds
Readout kind: CC50 at 24 h (µM)

Compound | Uom | Value
O=C1CSC(N2N=C(c3ccc(Cl)c(Cl)c3)CC2c2ccccc2)=N1 (centres undefined) | µM | 295
O=C1CSC(N2N=C(c3ccc(Cl)c(Cl)c3)CC2c2ccc(F)cc2)=N1 (centres undefined) | µM | 139
O=C1CSC(N2N=C(c3ccc(Cl)c(Cl)c3)CC2c2cccc(Cl)c2)=N1 (centres undefined) | µM | 165
COc1ccc(C2CC(c3ccc(C)c(C)c3)=NN2C2=NC(=O)CS2)cc1 (centres undefined) | µM | 387
